Experiment: Pharmacokinetics in dogs (plasma concentration by HPLC)
Format: in vivo, dog (beagle)
Conditions: dog, plasma, po, 2 mg/kg/day, Dog 2, day 1, 7 h; 2 mg/kg/day PO
measurement-label: concentration at 7 h

Ask: Value lookup for concentration at 7 h; key = `c1cc(Nc2nccc(-c3cccs3)n2)cc(OCCn2ccnc2)c1`
Reply: < 30 ng/mL

----------
Assay: Pharmacokinetics in dogs (plasma concentration by HPLC)
Format: in vivo, dog (beagle)
Settings: dog, plasma, po, 2 mg/kg/day, Mean, day 3; 2 mg/kg/day PO
measurement-label: Tmax (min)
Use min as the unit, but write only the number.

Ask: Which Tmax is listed for Cc1cc(Nc2nccc(-c3ccncc3)n2)ccc1N.Cl.Cl [Compound 2, reference compound] ?
Reply: 30

Ask: Entry `c1cc(Nc2nccc(-c3cccs3)n2)cc(OCCn2ccnc2)c1` : reported Tmax = ?
Reply: 60
